TESTED TARGET: T1, recombinant human Ang2-FLD (human, UniProt O15123 275-496, limits assumed)
T1 construct: domain: FLD; not used
T1 sequence (looked up): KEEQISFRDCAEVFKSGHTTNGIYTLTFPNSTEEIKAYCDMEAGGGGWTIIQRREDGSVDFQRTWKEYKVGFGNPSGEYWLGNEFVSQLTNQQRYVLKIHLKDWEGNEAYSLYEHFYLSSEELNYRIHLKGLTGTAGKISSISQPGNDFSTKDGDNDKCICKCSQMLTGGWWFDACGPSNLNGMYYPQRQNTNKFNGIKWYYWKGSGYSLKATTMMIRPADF
ASSAY COMMENT: ProteOn off-rate assay, periplasmic extract 1:10 over coated human Ang2-FLD
Documented fold improvement (off-rate against VHH 00027) across a set of binders

Some solved cases for reference:
[
  {
    "BINDER": "VHH 64C03 (VHH, periplasmic extract; not shown: C-terminal c-myc tag and His6 tag) VHH: EVQLVESGGGLVQAGGSLRLSCAASGFTLDDYAIGWFRQAPGKEREGVSSIRDNDGSTYYADSVKGRFTISSDNDKNTVYLQMNSLKPEDTAVYYCAAVPAGRLRYGEQWYPIYEYDAWGQGTLVTVSS",
    "OBSERVED RESULT": "9.2 fold"
  },
  {
    "BINDER": "VHH 60C09 (VHH, periplasmic extract; not shown: C-terminal c-myc tag and His6 tag) VHH: EVQLVESGGGLVQAGGSLRLSCAVSGITLDDYAIGWFRQAPGKEREGVSSIRDNDGSTYYADSVKWRFTISSDNDKNTVYLQMNSMKPEDTAVYYCAAVPAGRLRFGEQWYPIYEYDAWGQGILVTVSS",
    "OBSERVED RESULT": "8.5 fold"
  },
  {
    "BINDER": "VHH 55G03 (VHH, periplasmic extract; not shown: C-terminal c-myc tag and His6 tag) VHH: EVQLVESGGSLVQAGGSLRLSCAASGLTLDDYAIGWFRQAPGKEREGVSSIRDNDGSTYYADSVKGRFTISSDNDKNTVYLQMNSLKPEDTAVYYCAAVPAGRLRFGEQWYPIYEYDAWGQGTLVTVSS",
    "OBSERVED RESULT": "8 fold"
  },
  {
    "BINDER": "VHH 64F07 (VHH, periplasmic extract; not shown: C-terminal c-myc tag and His6 tag) VHH: QVQLVESGGGLVQAGGSLRLSCAVSGFTLDDYAIGWFRQAPGKEREGVSSIRDNDGSTYYADSVKGRFTISSDNDQNTVYLQMNSLKSEDTAVYYCAAVPAGRLRFGEQWYPIYEYDAWGQGTLVTVSS",
    "OBSERVED RESULT": "9.4 fold"
  }
]

Query block: Tell me the measured fold improvement (off-rate against VHH 00027) of VHH 55F02 (VHH, periplasmic extract; not shown: C-terminal c-myc tag and His6 tag) VHH: EVQLVESGGGLVQSGGSLRLSCAASGLTLDDYAIGWFRQAPGKEREGVSSIRDNDGSTYYADSVKGRFTISSDNDKNTVYLQMNSLKPEDTAVYYCAAVPAGRLRFGEQWYPIYEYDAWGQGTLVTVSS , please.
Result block: 8.7 fold

Query block: Moving on to the next binder: VHH 60A06 (VHH, periplasmic extract; not shown: C-terminal c-myc tag and His6 tag) VHH: EVQLVESGGGLVQAGGSLRLSCAASGFTLDDYAIGWFRQAPGKDREGVSSIRDNDGSTYYADSVKGRFTISSDNDKNTVYLQMNSLKPEDTAVYYCAAVPAGRLRYGEQWYPIYEYDAWGQGTVVTVSS
Result block: 8.3 fold

Query block: Note, next up: VHH 55D06 (VHH, periplasmic extract; not shown: C-terminal c-myc tag and His6 tag) VHH: EVQLVESGGGLVQAGGSLRLSCAASGLTLDDYAIGWFRQAPGKEREGVSSIRDNDGSTYYADSVKGRFTISSDNDKNTVYLQMNSLKPEDTAVYYCAAVPAGRLRFGEQWYPIYEYDAWGQGTLVTVSS
Result block: 9.4 fold

Query block: // next record VHH 64G03 (VHH, periplasmic extract; not shown: C-terminal c-myc tag and His6 tag) VHH: EVQLVESGGGLVQAGGSLRLSCAASGFTLDDYAIGWFRQAPGKEREGVSSIRDNDGSTYYADSVKGRSTISSDNDKNTVYLQMDSLKPEDTAVYYCAAVPAGRLRYGEQWYPIYEYDAWGQGTLVTVSS
Result block: 15.7 fold
